# percentage of ER activation annotations
biological target: ERα (Homo sapiens, UniProt P03372); construct: presence of both ER and PR in the MCF-7 nuclear extract; (kit); host or cells: MCF-7 nuclear extract; experiment: NR peptide ERα ELISA kit, percentage of ER activation; assay type: biochemical; details: 25 μM sample; normalized to vehicle control (DMSO) = 100%; over 100% agonist, below 100% antagonist; MCF-7 nuclear extract as ER source
Sequence (P03372 whole entry): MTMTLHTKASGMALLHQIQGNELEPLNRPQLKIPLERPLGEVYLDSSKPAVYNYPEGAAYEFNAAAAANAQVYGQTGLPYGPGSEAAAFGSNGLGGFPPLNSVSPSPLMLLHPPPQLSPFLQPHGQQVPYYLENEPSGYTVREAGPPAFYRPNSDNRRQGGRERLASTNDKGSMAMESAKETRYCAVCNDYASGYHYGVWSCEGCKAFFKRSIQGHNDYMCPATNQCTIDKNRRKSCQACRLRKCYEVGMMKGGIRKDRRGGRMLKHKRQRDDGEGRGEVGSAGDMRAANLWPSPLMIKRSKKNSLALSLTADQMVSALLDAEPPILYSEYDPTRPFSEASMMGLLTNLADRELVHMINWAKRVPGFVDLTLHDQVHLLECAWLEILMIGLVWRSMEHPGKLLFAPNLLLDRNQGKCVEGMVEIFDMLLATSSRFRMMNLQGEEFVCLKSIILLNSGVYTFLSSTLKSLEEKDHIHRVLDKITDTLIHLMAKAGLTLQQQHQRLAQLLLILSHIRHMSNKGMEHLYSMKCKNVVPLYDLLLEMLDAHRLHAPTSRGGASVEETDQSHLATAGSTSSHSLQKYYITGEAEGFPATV
Report the figure in % without appending any unit label.

> print(dat)
                                   molecule         experimental.readout  unit.of.measurement  result.value
1  CC#C[C@]1(O)CC[C@H]2[C@@H]3CCC4=CC(=O)CCC4=C3[C@@H](c3ccc(N(C)C)cc3)C[C@@]21C [mifepristone, reference compound]  percentage of ER activation                    %          51.7
2  C[C@]12CC[C@@H]3c4ccc(O)c(O)c4CC[C@H]3[C@@H]1CC[C@@H]2O [4-hydroxy estradiol]  percentage of ER activation                    %         196.3
3  O=C1c2ccccc2C(=O)N1CN(C(=O)c1ccccc1)c1ccc(O)cc1 [Compound B]  percentage of ER activation                    %            69

Moving on to the next molecule.
Form field: reported percentage of ER activation of CCC(=O)C1=C(O)CCC(c2cccc(Oc3ccccc3)c2)C1=O (stereo not shown) [Compound A]
53.1
